Test system: Staphylococcus aureus ATCC 12600
What MIC was measured for each of the following?
One number for each entry, in µg/mL.

{"columns": ["compound", "value.measured"],
 "data": [
  ["CCCCCCc1coc(C=C(C)C(=O)c2c(O)cc(C(C)CC/C=C/NC(=O)OC)oc2=O)c1 (mixture of isomers)", 2],
  ["COC(=O)N/C=C/CCC(C)c1cc(O)c(C(=O)C(C)=Cc2ccc(Oc3ccc(C(F)(F)F)cc3)s2)c(=O)o1 (mixture of isomers)", 2],
  ["CCCCOc1ccc(C=C(C)C(=O)c2c(O)cc(C(C)CC/C=C/NC(=O)OC)oc2=O)cc1 (mixture of isomers)", 1],
  ["CCOCc1ccc(C=C(C)C(=O)c2c(O)cc(C(C)CC/C=C/NC(=O)OC)oc2=O)s1 (mixture of isomers)", 10],
  ["CCCCCCc1ccc(C=C(C)C(=O)c2c(O)cc(C(C)CC/C=C/NC(=O)OC)oc2=O)s1 (mixture of isomers)", 0.9],
  ["COC(=O)N/C=C/CCC(C)c1cc(O)c(C(=O)C(C)=Cc2ccc(OC(C)C)cc2)c(=O)o1 (mixture of isomers)", 2],
  ["C=CCCCCc1ccc(C=C(C)C(=O)c2c(O)cc(C(C)CC/C=C/NC(=O)OC)oc2=O)s1 (mixture of isomers)", 4],
  ["COC(=O)N/C=C/CCC(C)c1cc(O)c(C(=O)C(C)=Cc2ccc(CCC(F)(F)F)cc2)c(=O)o1 (mixture of isomers)", 2],
  ["COC(=O)N/C=C/CCC(C)c1cc(O)c(C(=O)C(C)=Cc2ccc(OC(C)C)cc2C)c(=O)o1 (mixture of isomers)", 3],
  ["COC(=O)N/C=C/CCC(C)c1cc(O)c(C(=O)C(C)=Cc2ccc(CC(C)C)s2)c(=O)o1 (mixture of isomers)", 0.4]
]}

Below are 3 compounds. Give each one its MIC.
1. COC(=O)N/C=C/CCC(C)c1cc(O)c(C(=O)C(C)=Cc2ccc(CCCCC(F)(F)F)s2)c(=O)o1 (mixture of isomers)
2. COC(=O)N/C=C/CCC(C)c1cc(O)c(C(=O)C(C)=Cc2ccc(OCC(C)C)cc2)c(=O)o1 (mixture of isomers)
3. CCCc1ccc(C=C(C)C(=O)c2c(O)cc(C(C)CC/C=C/NC(=O)OC)oc2=O)cc1 (mixture of isomers)

Resp:
1: 1; 2: 2; 3: 4

The values you see were collected from patent US9592221B2.
